Origin of values: paper PMC9860980

- measurementDescription: Biodistribution of CorA to organs/tissues of CD-1 mice (LC-MS/MS)
- Assay type: in vivo
- conditionLabel: female, CD-1, mouse; spleen; 60 mg/kg IP

{"columns": ["compound", "Cmax"],
 "data": [
  ["C/C=C/C/C=C(\\C)C(O)CC/C(C)=C/C=C(\\C)C(=O)c1c(O)cc([C@H](C)CC/C=C/NC(=O)OC)oc1=O (stereo partly shown) [CorA, Corallopyronin A]", "2100 ng/g"]
]}

---

- measurementDescription: Pharmacokinetics of CorA in plasma of CD-1 mice
- Type: in vivo
- conditionLabel: female, CD-1, mouse, plasma, sc, 100 mg/kg; 100 mg/kg SC; CD-1 mice; mean ± SD

{"columns": ["compound", "Tmax / h"],
 "data": [
  ["C/C=C/C/C=C(\\C)C(O)CC/C(C)=C/C=C(\\C)C(=O)c1c(O)cc([C@H](C)CC/C=C/NC(=O)OC)oc1=O (stereo partly shown)", 3.33]
]}

---

- measurementDescription: Pharmacokinetics of CorA in plasma of CD-1 mice
- Format: in vivo
- conditionLabel: female, mouse; plasma; 30 mg/kg IP (BID); CD-1 mice; mean ± SD

{"columns": ["compound", "Cmax, µg/mL"],
 "data": [
  ["C/C=C/C/C=C(\\C)C(O)CC/C(C)=C/C=C(\\C)C(=O)c1c(O)cc([C@H](C)CC/C=C/NC(=O)OC)oc1=O (stereo partly shown)", 194]
]}

---

- measurementDescription: Pharmacokinetics of CorA in plasma of CD-1 mice
- Format: in vivo
- conditionLabel: female, CD-1, mouse, plasma, ip, 60 mg/kg; 60 mg/kg IP; CD-1 mice; mean ± SD
- Method: For pharmacokinetic (PK) experiments, 6–8-week-old outbred female CD-1 mice (Charles River, Germany) were used. CorA was dissolved in PEG400/phosphate-buffered saline (PBS) (80:20 (v/v)). […] CorA plasma concentrations were quantified by HPLC-DAD with an Alliance e2695 separation module and a 2998 PDA detector (Waters, Eschborn, Germany). […] The supernatant was transferred into a HPLC vial and a sample volume of 5 µL was injected and quantified at a wavelength of 300 nm. […]

{"columns": ["compound", "Tmax / min"],
 "data": [
  ["C/C=C/C/C=C(\\C)C(O)CC/C(C)=C/C=C(\\C)C(=O)c1c(O)cc([C@H](C)CC/C=C/NC(=O)OC)oc1=O (stereo partly shown) [CorA, Corallopyronin A]", 11.4]
]}

---

- measurementDescription: Biodistribution of CorA to organs/tissues of CD-1 mice (LC-MS/MS)
- Format: in vivo
- conditionLabel: female, CD-1, mouse; brain; 60 mg/kg IP
reportedEndpoint: Cmax

{"columns": ["compound", "reportedEndpoint", "assayResult"],
 "data": [
  ["C/C=C/C/C=C(\\C)C(O)CC/C(C)=C/C=C(\\C)C(=O)c1c(O)cc([C@H](C)CC/C=C/NC(=O)OC)oc1=O (stereo partly shown)", "Cmax", "70 ng/g"]
]}

---

- measurementDescription: Biodistribution of CorA to organs/tissues of CD-1 mice (LC-MS/MS)
- Type: in vivo
- conditionLabel: female, CD-1, mouse; kidney; 60 mg/kg IP
- Description: For pharmacokinetic (PK) experiments, 6–8-week-old outbred female CD-1 mice (Charles River, Germany) were used. CorA was dissolved in PEG400/phosphate-buffered saline (PBS) (80:20 (v/v)). CorA was administered once daily at 60 mg/kg intraperitoneally (IP), 100 mg/kg IP, 100 mg/kg subcutaneously (SC) and 100 mg/kg perorally (PO). Moreover, CorA was administered at 30 mg/kg IP twice a day (BID) (administration time points t = 0 and 6 h after first dose). […]

{"columns": ["molecule", "Cmax (ng/g)"],
 "data": [
  ["C/C=C/C/C=C(\\C)C(O)CC/C(C)=C/C=C(\\C)C(=O)c1c(O)cc([C@H](C)CC/C=C/NC(=O)OC)oc1=O (stereo partly shown)", 1200]
]}

---

- measurementDescription: Biodistribution of CorA to organs/tissues of CD-1 mice (LC-MS/MS)
- Assay type: in vivo
- conditionLabel: female, CD-1, mouse; liver; 100 mg/kg SC
reportedEndpoint: Cmax

{"columns": ["compound", "assayResult"],
 "data": [
  ["C/C=C/C/C=C(\\C)C(O)CC/C(C)=C/C=C(\\C)C(=O)c1c(O)cc([C@H](C)CC/C=C/NC(=O)OC)oc1=O (stereo partly shown) [CorA, Corallopyronin A]", "2300 ng/g"]
]}

---

- measurementDescription: Biodistribution of CorA to organs/tissues of CD-1 mice (LC-MS/MS)
- Format: in vivo
- conditionLabel: female, CD-1, mouse; liver; 100 mg/kg IP
- Protocol: For pharmacokinetic (PK) experiments, 6–8-week-old outbred female CD-1 mice (Charles River, Germany) were used. CorA was dissolved in PEG400/phosphate-buffered saline (PBS) (80:20 (v/v)). CorA was administered once daily at 60 mg/kg intraperitoneally (IP), 100 mg/kg IP, 100 mg/kg subcutaneously (SC) and 100 mg/kg perorally (PO). Moreover, CorA was administered at 30 mg/kg IP twice a day (BID) (administration time points t = 0 and 6 h after first dose). […]
reportedEndpoint: Cmax (ng/g)

{"columns": ["compound", "assayResult"],
 "data": [
  ["C/C=C/C/C=C(\\C)C(O)CC/C(C)=C/C=C(\\C)C(=O)c1c(O)cc([C@H](C)CC/C=C/NC(=O)OC)oc1=O (stereo partly shown)", 610]
]}

---

- measurementDescription: Pharmacokinetics of CorA in plasma of CD-1 mice
- Assay type: in vivo
- conditionLabel: female, mouse; plasma; 100 mg/kg PO; CD-1 mice

{"columns": ["compound", "unitSpec", "MRT"],
 "data": [
  ["C/C=C/C/C=C(\\C)C(O)CC/C(C)=C/C=C(\\C)C(=O)c1c(O)cc([C@H](C)CC/C=C/NC(=O)OC)oc1=O (stereo partly shown)", "h", 3.13]
]}

---

- measurementDescription: Pharmacokinetics of CorA in plasma of CD-1 mice
- Type: in vivo
- conditionLabel: female, CD-1, mouse, plasma, ip, 30 mg/kg; 30 mg/kg IP (BID); CD-1 mice; mean ± SD

{"columns": ["compound", "Tmax [min]"],
 "data": [
  ["C/C=C/C/C=C(\\C)C(O)CC/C(C)=C/C=C(\\C)C(=O)c1c(O)cc([C@H](C)CC/C=C/NC(=O)OC)oc1=O (stereo partly shown)", 11.4]
]}

---

- measurementDescription: Pharmacokinetics of CorA in plasma of CD-1 mice
- Type: in vivo
- conditionLabel: female, mouse; plasma; 100 mg/kg IP; CD-1 mice; mean ± SD

{"columns": ["compound", "unitSpec", "half-life"],
 "data": [
  ["C/C=C/C/C=C(\\C)C(O)CC/C(C)=C/C=C(\\C)C(=O)c1c(O)cc([C@H](C)CC/C=C/NC(=O)OC)oc1=O (stereo partly shown) [CorA, Corallopyronin A]", "h", 1.87]
]}

---

- measurementDescription: Biodistribution of CorA to organs/tissues of CD-1 mice (LC-MS/MS)
- Type: in vivo
- conditionLabel: female, CD-1, mouse; brain; 30 mg/kg IP

{"columns": ["molecule", "unitSpec", "Cmax"],
 "data": [
  ["C/C=C/C/C=C(\\C)C(O)CC/C(C)=C/C=C(\\C)C(=O)c1c(O)cc([C@H](C)CC/C=C/NC(=O)OC)oc1=O (stereo partly shown) [CorA, Corallopyronin A]", "ng/g", 40]
]}

---

- measurementDescription: Biodistribution of CorA to organs/tissues of CD-1 mice (LC-MS/MS)
- Type: in vivo
- conditionLabel: female, CD-1, mouse; kidney; 100 mg/kg IP
reportedEndpoint: Cmax (ng/g)

{"columns": ["compound", "reportedEndpoint", "assayResult"],
 "data": [
  ["C/C=C/C/C=C(\\C)C(O)CC/C(C)=C/C=C(\\C)C(=O)c1c(O)cc([C@H](C)CC/C=C/NC(=O)OC)oc1=O (stereo partly shown)", "Cmax", 1800]
]}

---

- measurementDescription: Biodistribution of CorA to organs/tissues of CD-1 mice (LC-MS/MS)
- Type: in vivo
- conditionLabel: female, CD-1, mouse; spleen; 100 mg/kg SC
reportedEndpoint: Cmax (ng/g)

{"columns": ["compound", "reportedEndpoint", "assayResult"],
 "data": [
  ["C/C=C/C/C=C(\\C)C(O)CC/C(C)=C/C=C(\\C)C(=O)c1c(O)cc([C@H](C)CC/C=C/NC(=O)OC)oc1=O (stereo partly shown)", "Cmax", 600]
]}

---

- measurementDescription: Biodistribution of CorA to organs/tissues of CD-1 mice (LC-MS/MS)
- Type: in vivo
- conditionLabel: female, CD-1, mouse; lung; 30 mg/kg IP

{"columns": ["compound", "Cmax"],
 "data": [
  ["C/C=C/C/C=C(\\C)C(O)CC/C(C)=C/C=C(\\C)C(=O)c1c(O)cc([C@H](C)CC/C=C/NC(=O)OC)oc1=O (stereo partly shown)", "1500 ng/g"]
]}
